# System: VIM-2 metallo-beta-lactamase (Pseudomonas aeruginosa) (UniProt Q932Y6)
# Run Description: VIM-2 metallo-beta-lactamase inhibitor potency, dose response, biochemical, epi-absorbance readout, selective inhibitors (AID 1919)
# Condition: purified VIM-2, nitrocefin hydrolysis, epi-absorbance fluorescence
Activity calls are given as the source filed them.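 The calls were made as follows: active = IC50 against the VIM-2 bacterial beta-lactamase enzyme at or below a set limit; inactive = IC50 above that set limit.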
Permitted responses: active, inactive

Record excerpt, results attached:
| Compound | Group Label |
| --- | --- |
| O=C(O)c1[nH]c2ccc(Br)cc2c1CCN1C(=O)c2cccc([N+](=O)[O-])c2C1=O | active |
| S=c1[nH]nc(-c2cccs2)n1C1CCCCC1 | active |
| CCCc1cc(=O)oc2c3c(cc(OCC(=O)N[C@@H](C)C(=O)O)c12)OC(C)(C)CC3 | inactive |
| CCCn1c(C(C)C)n[nH]c1=S | inactive |
| Cc1cc(C)n(-c2nc(SCC(=O)O)c3c4c(sc3n2)COC(C)(C)C4)n1 | inactive |

Query block: Please share the test call associated with `Cn1ccnc1SCC(=O)Nc1ccc2nc(SCC(=O)NC3CC3)sc2c1` .
Result block: inactive

Query block: Please share the test call associated with `COc1cccc(-n2c(CNC(=O)OC(C)(C)C)n[nH]c2=S)c1` .
Result block: inactive

Query block: Please share the test call associated with COc1cc2c(cc1OC)C(C)N(C(=O)c1nccnc1C(=O)O)CC2 (stereo not drawn) .
Result block: inactive

Query block: Please share the test call associated with `S=c1[nH]nc(Cn2c(-c3ccccn3)nc3ccccc32)n1-c1ccc2c(c1)OCCO2` .
Result block: inactive

Query block: Please share the test call associated with S=c1[nH]nc(-c2ccccc2)n1C1C=CCCC1 (stereo not drawn) .
Result block: inactive

----------
# System: VIM-2 metallo-beta-lactamase (Pseudomonas aeruginosa)
# Run Description: VIM-2 metallo-beta-lactamase inhibitor potency, dose response, biochemical, epi-absorbance readout, selective inhibitors (AID 1919)
# Condition: purified VIM-2, nitrocefin hydrolysis, epi-absorbance fluorescence
Active and inactive are the calls of the source.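 Rule for the calls: active = IC50 against the VIM-2 bacterial beta-lactamase enzyme at or below a set limit; inactive = IC50 above that set limit.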
Permitted responses: active, inactive

Record excerpt, results attached:
| Molecule | Group Label |
| --- | --- |
| CC(C)Cn1c(-c2ccco2)n[nH]c1=S | inactive |
| C=C(c1cccc2ccccc12)P(=O)(O)O | active |
| O=c1[nH]c2c(s1)C(c1cccnc1)C1C3CCC(C3)C1S2 (stereo not drawn) | active |

Query block: Please share the test call associated with `Cc1ccccc1C(=O)Nc1nnc(SCC(=O)NCc2ccco2)s1` .
Result block: active

Query block: Please share the test call associated with O=C(c1ccco1)N1N=C(c2ccc(Cl)cc2)CC1c1ccco1 (stereo not drawn) .
Result block: active

Query block: Please share the test call associated with `CC(C)(C)CC(=O)Nc1nnc(SCC(=O)NCc2cccs2)s1` .
Result block: inactive

Query block: Please share the test call associated with `O=P(O)(O)c1ccccc1OCc1ccccc1` .
Result block: active

Query block: Please share the test call associated with `CCCCn1c(-c2sccc2C)n[nH]c1=S` .
Result block: active

Query block: Please share the test call associated with COCC(C)NC(=O)c1cc2cccc([N+](=O)[O-])c2[nH]1 (stereo not drawn) .
Result block: inactive

Query block: Please share the test call associated with `CCOC(=O)c1[nH]c(C(=O)O)c(CCC(=O)OC)c1C` .
Result block: inactive

Query block: Please share the test call associated with `S=c1[nH]nc(-c2ccc3ccccc3n2)n1-c1ccc2c(c1)OCCO2` .
Result block: inactive

Query block: Please share the test call associated with `O=[N+]([O-])c1ccc(-c2ccccc2)c([As](=O)(O)O)c1` .
Result block: active

Query block: Please share the test call associated with `COc1ccc2[nH]c(C(=O)O)c(CCN3C(=O)c4ccc(C(=O)O)cc4C3=O)c2c1` .
Result block: active

Query block: Please share the test call associated with `O=C(O)c1ccccc1Sc1ncnc2sc3c(c12)CCC3` .
Result block: inactive

Query block: Please share the test call associated with `Cc1cc(OCC(=O)N2CCC[C@@H]2C(=O)O)c2c(C)c(C)c(=O)oc2c1` .
Result block: inactive

Query block: Please share the test call associated with `CCc1cc(=O)oc2c(C)c(OCC(=O)N3CCC[C@@H]3C(=O)O)ccc12` .
Result block: inactive

Query block: Please share the test call associated with `Cc1ccc(S(=O)(=O)n2[nH]c(=O)cc2NC(=O)c2cccs2)cc1` .
Result block: active

Query block: Please share the test call associated with `CSC[C@H](NC(=O)COc1cc2c(c3oc(=O)c(C)c(C)c13)CCC(C)(C)O2)C(=O)O` .
Result block: inactive

Query block: Please share the test call associated with `O=C(CSc1nnc(NC(=O)c2cccc(F)c2)s1)NCc1ccco1` .
Result block: inactive

Query block: Please share the test call associated with `Cc1ccc(-c2c(C(=O)O)c(C(=O)O)c3n2CSC3)cc1` .
Result block: active

Query block: Please share the test call associated with `O=C(CSc1nnc(NC(=O)c2ccccc2[N+](=O)[O-])s1)NCc1ccco1` .
Result block: active

Query block: Please share the test call associated with `Cc1ccc(-n2c(-c3nn(C)c(C)c3Cl)n[nH]c2=S)cc1` .
Result block: inactive

Query block: Please share the test call associated with `COc1ccccc1-c1n[nH]c(=S)n1Cc1ccco1` .
Result block: inactive

Query block: Please share the test call associated with O=C(O)C1Sc2[nH]c(=O)sc2C2c3cc(Cl)ccc3OC(=O)C12 (stereo not drawn) .
Result block: inactive

Query block: Please share the test call associated with `Cc1nn(CCc2n[nH]c(=S)n2-c2cccc(Cl)c2)c(C)c1[N+](=O)[O-]` .
Result block: inactive

----------
# System: VIM-2 metallo-beta-lactamase (Pseudomonas aeruginosa) (UniProt Q932Y6)
# Run Description: VIM-2 metallo-beta-lactamase inhibitor potency, dose response, biochemical, epi-absorbance readout, selective inhibitors (AID 1919)
# Condition: purified VIM-2, nitrocefin hydrolysis, epi-absorbance fluorescence
Calls of active or inactive are those of the source.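 How the source made its calls: active means IC50 against the VIM-2 bacterial beta-lactamase enzyme at or below a set limit; inactive means IC50 above that set limit.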
Reported Metric: IC50

Observe how each entry below is paired with its result.
| Compound | Experimental Result |
| --- | --- |
| COc1ccc(-c2n[nH]c(=S)n2-c2ccc3c(c2)OCCO3)cc1OC | inactive |
| O=C(O)Cn1cccc1C(=O)c1ccccc1 | inactive |
| CCCCc1cc(=O)oc2c3c(cc(OCC(=O)N4CCC[C@H]4C(=O)O)c12)OC(C)(C)CC3 | inactive |
| Cc1c(OCC(=O)N2CCC[C@@H]2C(=O)O)ccc2c3c(c(=O)oc12)CCC3 | inactive |
| Cc1c(C)c2ccc(OCC(=O)N3CCC[C@@H]3C(=O)O)c(C)c2oc1=O | 6.07 µM |
| O=C(O)C(NC(=O)c1ccccc1)=C(Cl)Cl | inactive |
| O=c1c2ccccc2cnn1Cc1n[nH]c(=S)n1C1CC2CCC1C2 (stereo not drawn) | inactive |
| Cc1cccc(C2c3[nH]c4ccccc4c3CCN2C(=O)c2cc(CC(C)C)[nH]c(=O)n2)n1 (stereo not drawn) | 7.93 µM |

Hello, I would appreciate it if you could give IC50 for each entry below.
1. Cc1cccc(-n2c(C)n[nH]c2=S)c1C
2. Cc1n[nH]c(C)c1CCCCOc1ccc([N+](=O)[O-])cc1
3. O=C1Nc2cc(C(=O)N3CCC(N4CCCCC4)CC3)ccc2S/C1=C\c1ccccc1
4. NC(=O)SCC(=O)Nc1ccccc1C(=O)O
5. CC(=O)c1ccc(-c2ccc(Cn3c(C)nc4cc(N)c(C)nc43)cc2)cc1

Result block:
["> 59.6 µM (inactive)", "inactive", "inactive", "inactive", "> 59.6 µM (inactive)"]

----------
# System: VIM-2 metallo-beta-lactamase (Pseudomonas aeruginosa) (UniProt Q932Y6)
# Run Description: VIM-2 metallo-beta-lactamase inhibitor potency, dose response, biochemical, epi-absorbance readout, selective inhibitors (AID 1919)
# Condition: purified VIM-2, nitrocefin hydrolysis, epi-absorbance fluorescence
Activity calls are given as the source filed them.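 The calls were made as follows: active = IC50 against the VIM-2 bacterial beta-lactamase enzyme at or below a set limit; inactive = IC50 above that set limit.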
Permitted responses: true (1) (active), false (0) (inactive)

Record excerpt, results attached:
| Sample Smiles | Group Label |
| --- | --- |
| CCn1c(-c2nn(-c3ccccc3)ccc2=O)n[nH]c1=S | false (0) |
| COc1ccccc1-n1c(-c2ccco2)n[nH]c1=S | false (0) |
| Cc1cc(=O)oc2c3c(cc(OCC(=O)N4CCC[C@H]4C(=O)O)c12)OC(C)(C)CC3 | false (0) |

Query block: Please share the test call associated with `Fc1ccccc1-c1n[nH]c(=S)n1Cc1ccccc1` .
Result block: false (0)

Query block: Please share the test call associated with `S=c1[nH]nc(-c2ccccc2)n1Cc1ccccc1` .
Result block: false (0)

Query block: Please share the test call associated with `O=C(O)c1ccccc1C(=O)c1cccc2ccccc12` .
Result block: false (0)

Query block: Please share the test call associated with `O=C(CSc1nnc(NC(=O)c2ccccc2)s1)NCc1ccco1` .
Result block: false (0)

Query block: Please share the test call associated with `S=c1[nH]nc(C2CC2)n1Cc1ccco1` .
Result block: true (1)

Ref: PubChem BioAssay AID1919
